- procedure_text: in vivo
- Parameters: species or system mice
- measurement_context: mouse, sc, 500 mg/kg
readout_type: bioavailability (%)

{"compound": "CC(O)COC[C@H]1O[C@@H]2O[C@H]3[C@H](O)[C@@H](O)[C@@H](O[C@H]4[C@H](O)[C@@H](O)[C@@H](O[C@H]5[C@H](O)[C@@H](O)[C@@H](O[C@H]6[C@H](O)[C@@H](O)[C@@H](O[C@H]7[C@H](O)[C@@H](O)[C@@H](O[C@H]8[C@H](O)[C@@H](O)[C@@H](O[C@H]1[C@H](O)[C@H]2O)O[C@@H]8COCC(C)O)O[C@@H]7COCC(C)O)O[C@@H]6COCC(C)O)O[C@@H]5COCC(C)O)O[C@@H]4COCC(C)O)O[C@@H]3COCC(C)O (stereo partly drawn) [HPβCD, Hydroxypropyl-β-cyclodextrin]", "reported_value": 42}

Origin of values: patent US11447577B2
